Provenance of the data: patent US8759104B2

- Tested on: HeLa cells
- Assay info: MTT cell viability assay of transfected HeLa cells
- Type: cell-based, human
- Test conditions: 100% being cell viability of untreated cells; 24 h after addition of transfection agents
Recorded endpoint: MTT toxicity assay, cell viability (between brackets), HeLa
Answer with the value and then the unit.

1. CCCCCCCCCCCCCCCC(=O)NCCN(CCNC(=O)CCCCCCCCCCCCCCC)C(=O)CCC(=O)N[C@@H](CCCNC(=N)N)C(=O)N[C@@H](CCCNC(=N)N)C(=O)N[C@@H](CCCNC(=N)N)C(N)=O.O=C(O)C(F)(F)F.O=C(O)C(F)(F)F.O=C(O)C(F)(F)F | 93%
2. CCCCCCCCCCCCCCCC(=O)NCCN(CCNC(=O)CCCCCCCCCCCCCCC)C(=O)/C=C\C(=O)N[C@@H](CCCNC(=N)N)C(=O)N[C@@H](CCCNC(=N)N)C(N)=O.O=C(O)C(F)(F)F.O=C(O)C(F)(F)F | 99%
3. CCCCCCCCCCCCCCCC(=O)NCCN(CCNC(=O)CCCCCCCCCCCCCCC)C(=O)/C=C\C(=O)N[C@@H](CCCNC(=N)N)C(=O)N[C@@H](CCCNC(=N)N)C(=O)N[C@@H](CCCNC(=N)N)C(N)=O.O=C(O)C(F)(F)F.O=C(O)C(F)(F)F.O=C(O)C(F)(F)F | 92%

Now look at this one.
Query block: Record request: MTT toxicity assay, cell viability (between brackets), HeLa value, item "CCCCCCCCCCCCCCCC(=O)NCCN(CCNC(=O)CCCCCCCCCCCCCCC)C(=O)CCC(=O)N[C@@H](CCCNC(=N)N)C(=O)N[C@@H](CCCNC(=N)N)C(N)=O.O=C(O)C(F)(F)F.O=C(O)C(F)(F)F"
Result block: 99%
